- targetDesc: Autoinducer 2-binding periplasmic protein LuxP (Vibrio harveyi) + Autoinducer 2 sensor kinase/phosphatase LuxQ (Vibrio harveyi) (UniProt P54300+P54302)
- Sequence (P54300 whole entry, looked up): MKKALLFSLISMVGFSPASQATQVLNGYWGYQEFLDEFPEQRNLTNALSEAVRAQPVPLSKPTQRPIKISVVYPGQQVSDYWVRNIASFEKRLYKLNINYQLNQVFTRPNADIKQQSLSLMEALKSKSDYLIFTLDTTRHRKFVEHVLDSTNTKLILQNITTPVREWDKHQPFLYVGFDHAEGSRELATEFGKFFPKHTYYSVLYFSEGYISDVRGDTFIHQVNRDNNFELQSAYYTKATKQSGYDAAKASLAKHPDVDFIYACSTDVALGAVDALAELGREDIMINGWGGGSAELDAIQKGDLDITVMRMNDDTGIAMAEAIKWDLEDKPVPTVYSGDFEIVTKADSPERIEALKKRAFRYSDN
- Sequence (P54302 whole entry, looked up): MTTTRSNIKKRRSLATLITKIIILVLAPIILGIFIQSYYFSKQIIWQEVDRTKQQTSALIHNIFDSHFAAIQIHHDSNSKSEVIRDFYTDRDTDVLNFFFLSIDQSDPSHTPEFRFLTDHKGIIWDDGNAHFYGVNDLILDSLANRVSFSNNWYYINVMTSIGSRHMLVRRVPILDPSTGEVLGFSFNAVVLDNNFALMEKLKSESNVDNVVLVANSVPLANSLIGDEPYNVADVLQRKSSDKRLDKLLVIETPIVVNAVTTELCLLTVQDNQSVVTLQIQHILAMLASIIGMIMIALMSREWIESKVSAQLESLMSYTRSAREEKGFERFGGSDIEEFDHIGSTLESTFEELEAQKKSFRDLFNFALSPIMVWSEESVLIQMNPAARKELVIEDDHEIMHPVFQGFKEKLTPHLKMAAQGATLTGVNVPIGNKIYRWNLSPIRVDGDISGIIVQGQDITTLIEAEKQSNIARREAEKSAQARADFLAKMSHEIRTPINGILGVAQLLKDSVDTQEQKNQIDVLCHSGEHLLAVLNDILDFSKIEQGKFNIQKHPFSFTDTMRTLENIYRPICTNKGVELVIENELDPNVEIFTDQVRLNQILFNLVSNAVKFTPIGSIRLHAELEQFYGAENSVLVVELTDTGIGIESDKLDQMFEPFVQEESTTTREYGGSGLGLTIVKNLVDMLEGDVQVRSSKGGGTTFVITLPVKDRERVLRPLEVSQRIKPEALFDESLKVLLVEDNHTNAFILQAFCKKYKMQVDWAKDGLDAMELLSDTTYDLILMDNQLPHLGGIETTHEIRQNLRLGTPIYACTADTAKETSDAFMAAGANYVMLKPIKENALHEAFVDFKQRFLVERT
- assayNotes: inhibitors of AI-2-induced luminescence in V. harveyi MM32, dose response, mechanism study for V. harveyi quorum sensing inhibitors, strain MM32 LuxS-null, dry powder, set 3 (AID 493117)
- assayConditions: AI-2 luminescence, 5 h
Inconclusive results are not listed.
// reported AC50 per item

Here is how some compounds turned out for AC50.
# smiles, AC50
rows = [
    ("C[C@@H]1CN([C@H](C)CO)C(=O)c2ccccc2-c2ccccc2CO[C@@H]1CN(C)Cc1ccc(Oc2ccccc2)cc1", "11.3 µM"),
    ("Cc1noc(C)c1S(=O)(=O)Nc1ccc2c(c1)C(=O)N([C@@H](C)CO)C[C@@H](C)[C@@H](CN(C)Cc1ccc(Oc3ccccc3)cc1)O2", "18.4 µM"),
    ("O=S(=O)(Nc1ccccn1)c1ccc(Oc2ccccc2)cc1", "1.35 µM"),
    ("O=S(=O)(Nc1cccnc1)c1ccc(Oc2ccccc2)cc1", "0.591 µM"),
    ("CCc1ccc(-c2ccc(C(=O)O)n2C)cc1", "3.61 µM"),
    ("C=Cn1c(C(=O)O)ccc1-c1ccc(Cl)cc1", "4.46 µM"),
]

AC50 recorded for this compound, Cn1cnc(S(=O)(=O)Nc2ccc(OC(F)(F)F)cc2)c1 , is 2.42 µM

AC50 recorded for this compound, C=Cn1c(C(=O)O)ccc1-c1ccc(OC)cc1 , is 7.08 µM

AC50 recorded for this compound, O=C1C=C/C(=C/Br)O1 , is 3.45 µM

AC50 recorded for this compound, C=Cn1c(C(=O)O)ccc1-c1ccc(CC)cc1 , is 2.32 µM
